Data origin, for the record: the supplement of paper PMC6757056

Entries annotated with measured normalized RNA/DNA level with ligand (log10)
B1: library; a variant is named by its letters at N, in order (parent)
chain: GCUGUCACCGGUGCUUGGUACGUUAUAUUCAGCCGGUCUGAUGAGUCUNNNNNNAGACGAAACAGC

Variants of: B1
Assay: normalized RNA/DNA level with ligand (relative to sTRSVctl = 100) (log10 (% of sTRSVctl)); HEK293T overexpressing SLC46A1; ligand concentration (+) RNA-Seq: 6 mM; higher = less ribozyme self-cleavage, higher mRNA level
Conditions: with (6R,S)-folinic acid; ligand present: yes
outcome.measure: normalized RNA/DNA level with ligand (log10)

INSERT INTO results (mutation_notation, result) VALUES
  ('CUUCAA', 2.05),
  ('CAUCCU', 2.08),
  ('UUCUUA', 2.02),
  ('ACGGGA', 2.01),
  ('UAAUGA', 2),
  ('CUUUAC', 2.01),
  ('GUGCAA', 2),
  ('ACCUGG', 2.04),
  ('UGUUCC', 2.05),
  ('CGCAGC', 2.01),
  ('UACAUA', 2),
  ('UUAUCG', 1.97),
  ('CACUAC', 2.01),
  ('CGUAGU', 2),
  ('GAGAUG', 2.02),
  ('CCGCCA', 2.04),
  ('GUAAUG', 1.98),
  ('UCGUUA', 2.04),
  ('UACAAU', 2),
  ('AAGGUC', 2),
  ('GGCAGA', 2.03),
  ('UGAACG', 2),
  ('UGGAAG', 1.96),
  ('UUGCUA', 2.04),
  ('CCCGUG', 2.01),
  ('GGUUGG', 2.03),
  ('UCGAGC', 2.03),
  ('AGUCAC', 2.02),
  ('UGAGCG', 1.98),
  ('CACCAC', 1.99),
  ('CUAAAG', 2),
  ('AUUCGA', 2.03),
  ('CGCCUA', 2.05),
  ('AAAAGG', 1.98),
  ('UAAGUG', 1.93),
  ('GUAAAC', 2.04),
  ('GUGUGU', 2.02),
  ('CGGAUA', 1.98),
  ('CGCUUU', 2),
  ('CCCGCA', 2.07),
  ('GAAUGG', 2.03),
  ('UGCCAU', 2),
  ('GCACUU', 2.01),
  ('CGGGCC', 2.04),
  ('AGCAUC', 2.05),
  ('ACAUGG', 2.04),
  ('UUGAGG', 2.01),
  ('AAACCG', 2),
  ('AUAAAA', 1.99),
  ('UGUUCA', 2.02),
  ('CAAUUG', 2.06),
  ('UGAUUU', 2.02),
  ('CGCCGU', 2.05),
  ('GAACUG', 1.99),
  ('UUUCGA', 2.04),
  ('GGGCCG', 2.08),
  ('CCCUGU', 2.1),
  ('UUGAGA', 1.99),
  ('UAUAAA', 1.97),
  ('UCAGGU', 1.99),
  ('AGGACC', 1.99),
  ('CCAGGC', 2.05),
  ('GGAAUC', 2.05),
  ('AGGUCU', 2),
  ('CAGGCG', 2.03),
  ('UGCUCC', 2.03),
  ('UAUAUG', 1.97),
  ('ACUGAA', 1.98),
  ('UGCAUG', 1.97),
  ('GUUACG', 2.02),
  ('GCUCAG', 2.02),
  ('GUGUGG', 2.03),
  ('GAGUAC', 2),
  ('UAACCU', 2.02),
  ('UAUCGU', 2.01),
  ('CAUCCG', 2.05),
  ('CGCGAG', 2),
  ('GCAAAG', 2.02),
  ('GUGCCU', 1.98),
  ('AACAGG', 2),
  ('AGGAGA', 2.02),
  ('UUAAAU', 2.01),
  ('AUGACU', 2.02),
  ('GCGUAG', 2.05),
  ('UUUUUA', 2.01),
  ('CACCGU', 2.03),
  ('ACAACC', 2.03),
  ('UAUACC', 2.02),
  ('CCAGCA', 1.98),
  ('ACCUGA', 2.03),
  ('AUUGAU', 2.01);
